Entry source: patent US20130196964A1

# Tested on: HCT 116 cells transfected with a luciferase reporter under the control of an HIF-responsive sequence
# method_description: HIF-luciferase assay
# Type: cell-based
# test_settings: Homo sapiens; HCT 116 HIF-luciferase reporter cells, hypoxia chamber (1% O2), 24 h, luminescence
readout_label: IC50 (nM)
Express it in nM; write the number only.

Below, 3 compounds whose answers are already recorded.
smiles_code	IC50 (nM)
Cc1cc(-c2nc(-c3ccc(OC(F)(F)F)cc3)no2)nn1Cc1ccnc(N2CCC(C#N)CC2)c1	2
Cc1cc(-c2nc(-c3ccc(OC(F)(F)F)cc3)no2)nn1Cc1ccnc(N2CC(N(C)C)C2)c1	5
Cc1cc(-c2nc(-c3ccc(OC(F)(F)F)cc3)no2)nn1Cc1ccnc(N2CCN(C)C(=O)C2)c1	4

Recorded IC50 of Cc1cc(-c2nc(-c3ccc(OC(F)(F)F)cc3)no2)nn1Cc1ccnc(N2CCN(C3CC3)CC2)c1 , please. 0.6

Follow-up entry: Cc1cc(-c2nc(-c3ccc(C4CCOCC4)cc3)no2)nn1Cc1ccnc(N2CCN(C3CC3)CC2)c1 1

Follow-up entry: Cc1cc(-c2nc(-c3ccc(OC(F)(F)F)cc3)no2)nn1Cc1ccnc(N2CCN(CC(F)(F)F)CC2)c1 1

Follow-up entry: Cc1cc(-c2nc(-c3ccc(S(=O)(=O)C(F)(F)F)cc3)no2)nn1Cc1cccc(C(=O)N2CCN(C)CC2)c1 6

----------
# System: HCT 116 cells transfected with a luciferase reporter under the control of an HIF-responsive sequence
# method_description: HIF-luciferase assay
# Type: cell-based
# test_settings: Homo sapiens; HCT 116 HIF-luciferase reporter cells, hypoxia chamber (1% O2), 24 h, luminescence
# Protocol: HCT 116 cells were transfected in a stable manner with a plasmid which contained a luciferase reporter under the control of an HIF-responsive sequence. These cells were sown in microtitre plates [20,000 cells/cavity in RPMI 1640 medium with 10% foetal calf serum (FCS) and 100 μg/ml of hygromycin]. […] After 24 h, Bright Glo reagent (Promega, Wis., USA) was added in accordance with the manufacturer'/s instructions, and after 5 min the luminescence was measured. […]
Measured pIC50, listed per entry.
Please express pIC50 as -log10 of the molar concentration.

compound	pIC50
Cc1cc(-c2nc(-c3ccc(OC(F)(F)F)cc3)no2)cn1Cc1cccc(C(=O)N2CCN(C)CC2)c1 [Example 52]	8.52
COC1CCN(c2cc(Cn3nc(-c4nc(-c5ccc(OC(F)(F)F)cc5)no4)cc3C)ccn2)CC1 [Example 150]	8.52

Recorded pIC50 of Cc1cc(-c2nc(-c3ccc(C4(C(F)(F)F)CC4)cc3)no2)nn1Cc1ccnc(N2CCN(C3CC3)CC2)c1 [Example 91] , please. 9.22

Follow-up entry: Cc1cc(-c2nc(-c3ccc(OC(F)(F)F)cc3)no2)nn1Cc1ccnc(N2CCC(N(C)C)CC2)c1 [Example 16] 8.40

----------
# System: HCT 116 cells transfected with a luciferase reporter under the control of an HIF-responsive sequence
# method_description: HIF-luciferase assay
# Type: cell-based
# test_settings: Homo sapiens; HCT 116 HIF-luciferase reporter cells, hypoxia chamber (1% O2), 24 h, luminescence
readout_label: IC50 (nM)
Express it in nM; write the number only.

Recorded IC50 of Cc1cc(-c2nc(-c3ccc(OC(F)(F)F)cc3)no2)nn1Cc1ccnc(N2CCN(C(C)C)CC2)c1 [Example 21] , please. 10

Follow-up entry: Cc1cc(-c2nc(-c3ccc(C(C)(C)C(F)(F)F)cc3)no2)nn1Cc1cccc(S(=O)(=O)N2CCC(O)CC2)c1 [Example 140] 4

Follow-up entry: Cc1cc(-c2nc(-c3ccc(OC(F)(F)F)cc3)no2)nn1Cc1cccc(C(=O)N2CCN(C3CC3)CC2)c1 [Example 35] 2

Follow-up entry: Cc1cc(-c2nc(-c3ccc(C4(C(F)(F)F)CC4)cc3)no2)nn1Cc1cccc(C(=O)N2CCN(C)CC2)c1 [Example 137] 3

Follow-up entry: Cc1cc(-c2nc(-c3ccc(C(C)(C)C)cc3)no2)nn1Cc1ccnc(N2CCN(C3CC3)CC2)c1 [Example 75] 1

Follow-up entry: Cc1cc(-c2nc(-c3ccc(C4(F)CCOCC4)cc3)no2)nn1Cc1cccc(C(=O)N2CCN(C)CC2)c1 [Example 45] 10

Follow-up entry: COCC1(c2ccc(-c3noc(-c4cc(C)n(Cc5ccnc(N6CCN(C7CC7)CC6)c5)n4)n3)cc2)CCC1 [Example 77] 1
